- Assay protocol: Solubility of bilastine vs. HPβCD concentration and pH
- Assay type: physicochemical
- Setup conditions: aqueous HPβCD solution, aqueous with cosolvent or surfactant or cyclodextrin, thermodynamic from solid; Entry 4: HPβCD 20 % w/v, final pH 5.16
Readout type: solubility at 48 h (mg/mL)
I only need the number, in mg/mL, no unit after it.

Incoming: Which solubility at 48 h reading was recorded for the compound CCOCCn1c(C2CCN(CCc3ccc(C(C)(C)C(=O)O)cc3)CC2)nc2ccccc21 ?
Outgoing: 18.4

----------
- Assay protocol: Solubility of bilastine vs. HPβCD concentration and pH
- Format: physicochemical
- Setup conditions: aqueous HPβCD solution, aqueous with cosolvent or surfactant or cyclodextrin, thermodynamic from solid; Entry 6: HPβCD 30 % w/v, final pH 7.15
Readout type: solubility at 48 h (mg/mL)
Response body: numeric value in mg/mL, unit text excluded.

Incoming: For CCOCCn1c(C2CCN(CCc3ccc(C(C)(C)C(=O)O)cc3)CC2)nc2ccccc21 , what is its reported solubility at 48 h?
Outgoing: 16.9
